Data provenance: the nanobody polyreactivity screen of Harvey et al. (2022)

# measurement_description: yeast display, Sf9 membrane polyspecificity reagent, FACS + sequencing; frameworks hold sequencing errors
test_readout: polyreactivity (PSR sort gate)

>>> result("QVQLVESGGGLVQAGGSLRLSCAASGRIFRKYAMGWYRQAPGKERELVAVINDRGGSTYYADSVKGRFTISRDNAKNTVYLQMNSLKPEDTAVYYCNATGPKKDTARYDYWGQGTQVTVSS")
"low polyreactivity"
>>> result("QVQLVESGGGLVQAGGSLRLSCAASGRIFPHYAMGWFRQAPGKERELVAAISSGGRTNYADSVKGRFTISRDNAKNTVYLQMNSLKREDSAVYYCAAEAPFYVIGRRYRGYDYWGQGTQVTVSS")
"high polyreactivity"
>>> result("QVQLVESGGGLVQAGGSLRLSCAATGSTFYQYALGWYRQAPGKERELVAAISSRGTSTYYADSVKGRFTISRDNAKNTVYLQMNSLKPEDTAVYYCATEYTNWHRTWSLQTGGYGYWGQGTQGTVSS")
"high polyreactivity"
>>> result("QVQLVESGGGLVQAGGSLRLSCAASGSTFGWYAMGGYRQAPGKERELVAAISSGGSTYYADSVKGRFTISRDHAKYTVYLQMNSLKPEDTAVYYCAADIGYYYRYDYWGQGTQVTVSS")
"low polyreactivity"
>>> result("QVQLVESGGGLVQAGGSLRLSCAASGSIFEVYAMGWYRQAPGKERELVAAINYTGGSTYYADSVKGRFTISRDNAKNTVYLQMNSLKPEDTAVYYCARDTSGIGTRYDYWGQGTQVTVSS")
"low polyreactivity"
>>> result("QVQLVESAGGLDQAGGSLRLICAASGGTFSFYAMGWYRHAPGKEREFVAAITASDGSTYADSVKGRFTISRDNAKNTVYLQMNSLKPEDTAVYYCAVAGGEFSSYGYWGQGTQVTVSS")
"low polyreactivity"
>>> result("QVQLVESGGGLVQAGGSLRLSCAASGRTFGYYAMGWYRPAPGKERELVAAISSGGRTYYADSVKGRFTISRDNAKNTVYLQMNSLKPEDTAVYYCNAASLVAYLARLGRDYWGQGTQVTVSS")
"low polyreactivity"
>>> result("QVQLVESGGGIVQAGGSLRVSCAASGRTFYSSAMGWYRQAPGKERELVAAISWNGGSTYYADSVKGRFTISRDNAKNTVYLQMNSLNPEDTAVYYCAATYLLRGDAYYSWGQGTQVTVSS")
"high polyreactivity"
>>> result("QVQLVESGGGLVQAGGSLRLSCAASGSIFGGYAMGWYRQAPGKERELVAAITWGGGSTYYADSVKGRFTISRDNAKNTVYLQMNSLKPEDTAVYYCAADRSWYDWEDDYWGQGTQVTVSS")
"low polyreactivity"
>>> result("QVQLVESGGGLVQAGGSLRLSCAASGSTLAKYTMGWYRQAPGKERELVATISRRGGSTYYADSVKGRFTISRDNAKNTVYLQMNSLKPEDTAVYYCNAVGHTSIRRALDILDYWGQGTQVTVSS")
"high polyreactivity"
>>> result("QVQLVESGGGLVQAGGSLRLSCAASGRTFLTNAMGWYRQAPGKERELVAAIRWSGTSTYYADSVKGRFTISRDNAKNTVYLQMNSLKPEDTAVYYCAARKVYGSKYGYWGQGTQVTVSS")
"high polyreactivity"
>>> result("QVQLVESGGGLVQAGGSLRLSCAASGRIFGRYAMGWYRQAPGKERELVATITYTGGSTYYADSVKGRFTISRDNAKNTVYLQMNSLKPEDTAVYSCNAVKPVSRTYDSSYYWGPGTQVTVSS")
"high polyreactivity"
>>> result("QVQLVESGGGLVQAGGSLRLSCAASGITFKTYDMGRYRQAPGKERELVATINRGSRTNYADSVKGRFTISRDNAKNTVYLQMNSLKPEDTAVYYCSAHDTTFIPSPDGDYLGQGTQVTVSS")
"low polyreactivity"
>>> result("QVQLVESGGGLVQAGGSLRLSCASSGSTFPYNAMGWYRQAPGKERELVAAITSSGRTNYADSVKGRFTISRDNAKNTVYLQMNSLKPEDTAVYYCAAGRWYAHRVDYWGQGTQVTVSS")
"low polyreactivity"
>>> result("QVQLVESGGGLVQAGGSLRLSCAASGRIFVYNTMGWYRQAPGKERELVAAIDWSGGSKYYADSVKGRFTISRDNAKNTVYLQMNSLKPEDTAVYYCNADSLIGMDYWGQGTQVTVSS")
"high polyreactivity"
>>> result("QVQLVESGGGLVQAGGSLRLSCAASGIIFAYNAMGWYRQAPGKERELVAAISVIGGTTYYADSVKGRFTISRDNAKNTVYLQMNSLKPEDTAVYYCAVDSVQYGGGYERLHELYYWGQGTQVTVSS")
"low polyreactivity"
>>> result("QVQLVESGGGLVQAGGSLRLSCAASGRTFRYYTMGWYRQAPGKERELVAAISRGGRTYYADSVKGRFTISRDNAKNTVYLQMNSLKPEDTAVYYCAAQLFREYYYWGQGTQVTVSS")
"high polyreactivity"
>>> result("QVQLVESGGGLVQAGGSLRLICAASGSIFLYYAMGWYRQAPGKEMELVAAITSTGSTYYADSVKGRFTISRDNAKNTVYLQMNSLKPEDTAVYYCAAELRRLFYAYGYWGQGTQVTVSS")
"low polyreactivity"
>>> result("QVQLVESGGGLVQAGGSIRLTCAASGLIIGVYAKGWYRQAPGKERELVAAITDGGSTYYADSVKGRFTISRDNEQNTVSLQMNSVKPEDTAVYYCAREQGVNRNHDYWGQGTQVTVSS")
"low polyreactivity"
>>> result("QVQLVESGGGLVQAGGSLRLSCAASGRIFTGNAMGWSRQAPGKERELVAAISASGSSSYYADSVKGRFTISRDNAKNTVYLQMNSLNPEDTAVYYCAAEGWYCYYYWGQGTQVTVSS")
"high polyreactivity"
>>> result("QVQLVESGGGLVQAGGSLRLSCAASGSIFRWYAMGWYRQAPGKERELVAAITWSASRTYYADSVKGRFTISRDNAKNTVYLQMNSLKPEDTAVYYCAKRGWSSVYFHGGFGYKLYDYWGQGTQVTVSS")
"low polyreactivity"

* * *

# measurement_description: yeast display, Sf9 membrane polyspecificity reagent, FACS + sequencing; frameworks hold sequencing errors
test_readout: polyreactivity (PSR sort gate)

>>> result("QVQLVESGGGLVQAGGSLRLSCAATGITFVYNAMGWYRQAPGKERELVAAISWSGTSTYYADSVKGRFTISRDNAKNTVYLQMNSLKPEDTAVYDCSAQSGYPPYGYYYWGQGTQVTVSS")
"low polyreactivity"
>>> result("QVQLVESGGGLVQAGGSLRLSCAASGRIFYTYAMGWYRQAPGKERELVAAISRSGVSTYYADSVKGRFTISRDTAKNTVYLQMNSLKPEDTAVYYCAARWRSGFTSGDYWGQGTQVTVSS")
"low polyreactivity"
>>> result("QVQLVESGGGLVQAGGSLRLSCAASGSIFYLYTMGRYRQAPGKERELVAAITNGGSTDYADSVKGRFTISRDNAKNTVYLQMNSLKPEDTAVYYCNADPRYPVDELEYWVTTPYDYWGQGTQVTVSS")
"low polyreactivity"

* * *

# measurement_description: yeast display, Sf9 membrane polyspecificity reagent, FACS + sequencing; frameworks hold sequencing errors
test_readout: polyreactivity (PSR sort gate)

>>> result("QVQLVESGGGLVQAGGSLRLSCAASGRTFKYNAMGWYRQAPGKERELVAAISSRGGSTYYADSVKGRFTISRDNAKNTVYLQMISLKPEDTAVYYGANATSSSEYGYDYWGQGTQVTVSS")
"high polyreactivity"
>>> result("QVQLVESGGGLVQAGGSLRLSCAASGFNFRANGMGWYRQAPGKERELVATITSGGTTNYADSVKGRFTITRDNAKNTVYLQMNSLKPEDTAVYYCAKRFVQAYFRLYDYWGQGTQVNVSS")
"low polyreactivity"
>>> result("QVQLVESWGRLVQAGGSLRLTCAASGFIFSSYAMGWYRQAPGKERELVAAISQSGGRTYYADSVKGRFTISRDNAKNTVYLQMNSLKPEDTAVYYCNTLYTIGAVYYWGQGTQVTVSS")
"high polyreactivity"
>>> result("QVHLVESGGGLVQAGGSLRLSCAASGRTFIGNAMGWYRQATGKERELVAGITWSGGRSYYADSVKGRFTISRDNAKNTVYLQMNSQKPEDTAVYYCGRAGQSSRMNYWGQGTQVTVSS")
"high polyreactivity"
>>> result("QVQLVESGGGLVQAGGSLLLSCAATGITFVPNAMGWYRQAPGKERELVDAISTRGGSTYYADSVKGRFTISRDNAKNTVYLQMNSLKPEDTAVYYCNALITGRWFDYWGQGTQVTVSS")
"high polyreactivity"
>>> result("QVQLVESGGGLVQAGGSLRLSCAASGSTFYIYAMGWYRQAPGKERELVAAITWRGGGTYYADSVKGRFTISRDNAKNTVYLQMNSLKPEDTAVYYCNADYPRSHYQYPYNYWGQGTQVTVSS")
"high polyreactivity"
>>> result("QVQLVESGGGLVQAGGSLRLSCAASGRTLTQNAMGWYRQAPGKERELVATISWTAGSTYYADSVKGRFTISRDNAKNTVYLQMNSLKPEDTAVYYCAADVFYSIYDYWGQGTQVTVSS")
"low polyreactivity"
>>> result("QVQLEESGGGLVQAGGSLRLSCAASGFIFAFNAMGWYRQAPGKEREMVATISWNDGGTYYADSVKGRFTISRDNAKNTVYLEMNSLKPEDTAVYYCAADWYLYLDDKYDYWGQGTQVTVSS")
"low polyreactivity"
>>> result("QVQLVESGGGLVQAGGSLRLSCAASGFIFIYNAMGWFRQAPGKERELVAAISRTGARTYYADSVKGRFTISRDNAKNTVYLQMNSLKPEDTAVYYCAGGVRTRTEEYDYWGQGTKVTVSS")
"high polyreactivity"
>>> result("QVQLVESGGGLVQAGGSLRLSCAASGNIFATYAMGWYRQAPGKESELVAAITSSGGRTYYADSVKGRFTISRDNAKISVYLQMNSLKPEDTAVYNCNAVYSLYYTRYNYWGHGTQVTVSS")
"high polyreactivity"
>>> result("QVQLVESVGGLDQAGGSLRLSCAASGSTFRYYVMGWYRQAPGKERELVAGITRGGSTNYADSVKGRFTISRENAKNTVYLQMNSLKPEDTAVYYCASRGGWKRPFGYQLQYDYWGQGTQLTVSS")
"high polyreactivity"
>>> result("QVQHVESGGGLVQGGGSLRLSCAASGSTFYAYAKGWYRQARGKERELVAVITSSGSTYYADSVKGRFTISRDNAKNTDYLQMNSLKAEDTAVYYCAAKRLSQSRRTQYRTRYQPMYYWGQGTQVTVSS")
"high polyreactivity"
>>> result("QVQLVESGGGLVQAGGSLRLSCAASGFTFRQYAMGGYGQAPGKEREWVASIRNGGSTNYADSVKGRFTISRDNAKNTDYFQMITLKPEDTALYYCSQRHSRTNMYYWGQGTQVTVSS")
"high polyreactivity"
>>> result("QVQLVESGGGLVQAGGSLRLSCAASGFTFRGYAMGWYRPAPGKERELVAAITVRGGRTYYADSVKGRFTISRDNAKNTVYLQMNSLKPEETALYYCAKPVDRYTYSLYQQYDYWGQGTQVTVSS")
"high polyreactivity"
>>> result("QVQLVESGGGLVQAGGSLRLSCPASGGNFPFNGMGWSRQAPGKERELVAAISSGGRTYYADSVKGRFTISRDNAKNTVYLQMNSLKPEDTAVYYCAARTSRYYYYPYAFYWGQGTQVTVSS")
"high polyreactivity"
>>> result("QVQLVESGGGLVQAGGSLRLTCAASGSIFYLYAMGWYRQAPGKETELVAAISRTGSTYADSVKGRFTISRDNAKKTVYLQMNSLKPEDTAVYYCAAEYRYYWYGTMNYWGQGTQVTVSS")
"low polyreactivity"
>>> result("QVELVESGGGLVQAGGSLRLSCAASGYTFRFNAMGWYRQAPGKEREFVAAIDFGGAGTYYADSVKGRFTISRDNAKNTVYLQMNSLKPEDTAVYYCNARDGVTTEFDYWGQGTQVTVSS")
"low polyreactivity"
>>> result("QVQLVESGGGLVQAGGSLRLSCAASGSTFGWYAMGWYRQAPGKERELVAAISTSGNTYYADSVKGRFTISRDNAKNTVYLHMNRLKPEDTAVSYCAKYVNPDHDYWGQGTQVTVSS")
"low polyreactivity"
>>> result("QVQHVESGGGLVQAGGSLRLSCAASGRIFWGYEMGWYRQAAGKEREFVAALSSGGGRTYYADSVKGRFTISRDNAKNTVYLQMNSLKPDDSGVYYSNAELNWYYYIHLDYWGQGTQVTVSW")
"low polyreactivity"
>>> result("QVQLVESGGGLVQAGGSLRLSCAASGFTFGGYAMGWYRQAPGKERELVAAIRSTGDTTYYADSVKGRFTISRDNAKNTVYVQMNSLKPEDTAVYYCNADLSRDNDFDYWGQGTQVTVSS")
"low polyreactivity"
>>> result("QVQLVESGGGLVQAGGSLRLSCAASGIIFAGNAMGWYRQAPGKERELLAVITSGGSTYYADSVKGRFTISRDNAKNTVFLQINSLIPEDTAVYYCNKVYYAYRVSLYSYGYWGQGTQVTVSS")
"high polyreactivity"
